System: SR leukemia
assay-details: NCI-60 one-dose screen, 48 h (100 = growth as untreated, 0 = no growth, -100 = all killed)
details: 10 µM unless noted
About 83,000 compounds went through this panel and 20% of them were active in at least one assay; those are over-represented in the sample as a whole.
experimental-endpoint: growth (%)
Numbers only, in %.

Cc1cc2nc(CN)[nH]c2cc1C: 97.2
CCN(CCC#N)c1ccccc1: 96.4
C=C[C@H]1CCC/C=C/[C@@H]2C[C@H](O)C[C@H]2[C@H](O)/C=C/C(=O)O1: 0.87

Hi! Can you tell me growth for each of these compounds?
1. CC1OC(n2c3ccccc3c3c4c(c5c6ccccc6[nH]c5c32)C(=O)N(CCN2CCOCC2)C4=O)CC(O)C1O (stereo not drawn)
2. CC(C)CCSc1nc(-c2ccc(F)cc2)c(C#N)c(N2CCCCC2)n1
3. CC1=C(/C=C/C(C)=C/C=C(C(=O)O)\C(C)=C\C(=O)O)C(C)(C)CCC1
4. Oc1ccc(-c2nc3ccccc3s2)cc1CN(Cc1ccccn1)Cc1ccccn1
5. COc1ccc2nc3ccccc3c(NCc3ccc(Cl)cc3)c2c1

Data returned:
10.7
87.6
95.7
7.98
-29.6
